EXPERIMENT_DESCRIPTION: NCI Yeast Anticancer Drug Screen. Data for the sgs1 mgt1 strain (AID 161);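 note: 0% = growth of cultures given vehicle only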
SETUP_CONDITIONS: S. cerevisiae sgs1 mgt1 strain, at 50.0 µM
The panel holds about 79,000 compounds, 15% with a hit somewhere; the sample as a whole holds those more often. Active and inactive are the calls of the source. Cut-off read from the data, not from the text of the source: active = growth inhibition above about 70%; inactive = the rest.
// classify into active, inactive

Input line: Assay result, entry `Cc1nn(-c2cc(Cl)ccc2[N+](=O)[O-])c(C)c1Cl` — outcome?
Output line: inactive

Input line: Assay result, entry N#Cc1ccc(C2NN=CC23C(=O)c2ccccc2OC3c2ccccc2)cc1 (centres undefined) — outcome?
Output line: active

Input line: Assay result, entry `CC(=O)Cc1ccc[cH-]1.[Fe+2].c1cc[cH-]c1` — outcome?
Output line: active

Input line: Assay result, entry CCCCCCCCCCCCCCC(C(=O)[O-])[n+]1ccccc1 (centres undefined) — outcome?
Output line: active

Input line: Assay result, entry `C=C(CN(C)C)C(=O)c1cc(C)ccc1C` — outcome?
Output line: active

Input line: Assay result, entry `O=C(/C=C\c1ccc(Cl)cc1Cl)c1cccs1` — outcome?
Output line: inactive

Input line: Assay result, entry N#CC(C(=O)Nc1ccccc1)C1=C(Cl)C(=O)c2ccccc2C1=O (centres undefined) — outcome?
Output line: active

Input line: Assay result, entry `CC1CCN(CCC(=O)c2ccc(Cl)cc2)CC1` — outcome?
Output line: active

Input line: Assay result, entry `CSC(=S)Nc1cccc(C)n1` — outcome?
Output line: inactive

Input line: Assay result, entry `CCN(CC)C(C)(C)C(=O)/C=C/c1ccccc1` — outcome?
Output line: inactive

Input line: Assay result, entry `O=CNc1ccc2c(c1)C(=O)c1ccccc1-2` — outcome?
Output line: inactive

Input line: Assay result, entry `CCOC(=O)c1cnc2cc(C(F)(F)F)ccc2c1N=[N+]=[N-]` — outcome?
Output line: inactive

Input line: Assay result, entry CC(C(=O)N1C(=O)N(C(=O)[C@H](C)C(O)c2ccccc2)[C@H](c2ccccc2)[C@H]1c1ccccc1)[C@@H](O)c1ccccc1 (some centres undefined) — outcome?
Output line: active

Input line: Assay result, entry `Cc1cc(S(=O)(=O)/N=C(/NN)NNc2cccc(C(F)(F)F)n2)c(S)cc1Cl` — outcome?
Output line: inactive

Input line: Assay result, entry CC(=O)OCC(=O)C1(O)CCC2C3CCC4CCCCC4(C)C3CCC21C (centres undefined) — outcome?
Output line: active

Input line: Assay result, entry `FC(F)(F)c1nc2nc(Cl)c(Cl)nc2n1CCCN1CCOCC1` — outcome?
Output line: inactive

Input line: Assay result, entry CCCCCCCCCCC1CCC(=O)O1 (centres undefined) — outcome?
Output line: active

Input line: Assay result, entry `CN1Cc2ccccc2/C=C\c2ccccc21` — outcome?
Output line: inactive

Input line: Assay result, entry `CC(C)/C(Cl)=N\OC(=O)Nc1ccc(F)cc1` — outcome?
Output line: active

Input line: Assay result, entry CC(/C=C/c1ccc2c(c1)OCO2)[N+](=O)[O-] (centres undefined) — outcome?
Output line: active

Input line: Assay result, entry `Fc1ccc(NC(=S)SCc2ccc(Cl)c(Cl)c2)cc1F` — outcome?
Output line: active

Input line: Assay result, entry `O=C(O)c1ccccc1-c1ccccc1C(=O)Nc1ccc2c(c1)Cc1ccccc1-2` — outcome?
Output line: inactive

Input line: Assay result, entry `O=C1CSc2cc([N+](=O)[O-])ccc2N1` — outcome?
Output line: inactive

Input line: Assay result, entry `O=C1c2ccccc2C(=O)c2c(NC3CCCCC3)ccc(Nc3ccc(S(=O)(=O)O)cc3)c21` — outcome?
Output line: active

Input line: Assay result, entry CCCCCCCCC/C=C/C=C/C(=O)NCC(=O)NC1C(O)C(O)C(Nc2ncnc3nc[nH]c23)OC1C(O)CO (centres undefined) — outcome?
Output line: inactive

Input line: Assay result, entry `c1ccc2c(c1)C(=NCCCN1CCCCCC1)c1cccn1-2` — outcome?
Output line: active

Input line: Assay result, entry `CSc1nc(=S)[nH]c2c1c(C)nn2-c1ccccc1` — outcome?
Output line: active

Input line: Assay result, entry CCCCN1C(=O)N(c2ccc(OCC)cc2)C2N(CCCC)C1C(C)(C)C2(C)C (centres undefined) — outcome?
Output line: inactive

Input line: Assay result, entry Clc1ccc(SC(/C=C/NNC2=NC(c3ccccc3)C(c3ccccc3)=NN2)c2ccccc2)cc1 (centres undefined) — outcome?
Output line: inactive

Input line: Assay result, entry COc1cc(CC2CC(c3ccc4c(c3)OCO4)OC2=O)cc(OC)c1OC (centres undefined) — outcome?
Output line: inactive

Input line: Assay result, entry `Cc1ccc(CSC(N)=Nc2ccccc2)cc1C` — outcome?
Output line: inactive

Input line: Assay result, entry COc1cc(C2SCC(=O)N2c2ccc(-c3ccc(-n4c(-c5ccccc5)nc5ccccc5c4=O)cc3)cc2)cc(OC)c1OC (centres undefined) — outcome?
Output line: inactive

Input line: Assay result, entry `O=C(/C=C/c1cccc(Br)c1)c1cccs1` — outcome?
Output line: active

Input line: Assay result, entry `O=C(NCCCNCCCNC(=O)c1cc(-c2ccccc2)nc2ccccc12)c1cc(-c2ccccc2)nc2ccccc12` — outcome?
Output line: inactive

Input line: Assay result, entry `CC(C)NC(=O)OCc1c(COC(=O)NC(C)C)c(-c2ccc(Cl)c(Cl)c2)n2c1CCC2` — outcome?
Output line: inactive

Input line: Assay result, entry `NCCNc1ccc(NCCN)c2c1C(=O)c1c(O)ccc(O)c1C2=O` — outcome?
Output line: inactive

Input line: Assay result, entry `COc1ccc(-c2cn(-c3ccc(I)cc3)c3ncnc(N)c23)cc1` — outcome?
Output line: inactive

Input line: Assay result, entry `Cc1nc(-[n+]2nc(-c3ccncc3)nn2-c2ccccc2)sc1C` — outcome?
Output line: active

Input line: Assay result, entry `Cc1ccc(S(=O)(=O)NC(=O)NC2=NC(C)(C)N(c3ccc(Cl)c(Cl)c3)C(N)=N2)cc1` — outcome?
Output line: inactive

Input line: Assay result, entry `C[C@@H]1C[C@H]2[C@@H]3CCC4=CC(=O)C=C[C@]4(C)[C@@]3(Cl)[C@@H](Cl)C[C@]2(C)[C@@]1(O)C(=O)COP(=O)(O)O` — outcome?
Output line: inactive

Input line: Assay result, entry OC1(c2ccccc2)CSC2=Nc3ccccc3C3CCN1N23 (centres undefined) — outcome?
Output line: active

Input line: Assay result, entry `Cc1cc(CO)c(O)c(CNCc2cc(C)cc(CO)c2O)c1` — outcome?
Output line: active

Input line: Assay result, entry CCCCCCCCCCCCCC[N+](C)(CC(=O)[O-])Cc1ccccc1 (centres undefined) — outcome?
Output line: active

Input line: Assay result, entry `CCCCCCCCCCCCCCCCCCNC` — outcome?
Output line: active

====

EXPERIMENT_DESCRIPTION: NCI Yeast Anticancer Drug Screen. Data for the wt1 strain (AID 149);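 note: 0% = growth of vehicle-treated wt1 cultures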
SETUP_CONDITIONS: S. cerevisiae wt1 strain (SPY 50644) growth inhibition; at 33.0 µM; hits give high values
Procedure: Growth inhibition of yeast strains with defined genetic alterations is measured as a screen for potential anti-cancer activity. Selected strains with alterations in DNA damage repair or cell cycle control were exposed to compounds and growth inhibition was measured relative to vehicle treated controls. The strain used in this assay is wt1
The panel holds about 79,000 compounds, 15% with a hit somewhere; the sample as a whole holds those more often.
QUANTITY_MEASURED: growth inhibition (%)
Kindly provide the numeric value in % only, without the unit symbol.

Input line: Kindly indicate its recorded growth inhibition. Item: CC(=O)OC1CCC2(C)C(=CCC3C4CCC5(OC6CC(C)CN(C(C)=O)C6C5C)C(C)=C4C(=O)C32)C1 (stereo not given)
Output line: 97

Input line: Kindly indicate its recorded growth inhibition. Item: `Cc1nc(-c2ccccc2)c(-c2ccccc2)s1`
Output line: 59

Input line: Kindly indicate its recorded growth inhibition. Item: `O=C1C(=O)c2ccccc2C=C1[N+](=O)[O-]`
Output line: 15

Input line: Kindly indicate its recorded growth inhibition. Item: `COc1ccc(NC(=S)N/N=C(\c2ccccc2)c2ccccn2)cc1`
Output line: 50

Input line: Kindly indicate its recorded growth inhibition. Item: CCOC(=O)C(NC(=O)c1ccccc1)(N1CCN(c2cc3c(cc2F)c(=O)c(C(=O)O)cn3C2CC2)CC1)C(F)(F)F (stereo not given)
Output line: 0

====

EXPERIMENT_DESCRIPTION: NCI Yeast Anticancer Drug Screen. Data for the rad18 strain (AID 177)
SETUP_CONDITIONS: S. cerevisiae rad18 mutant growth inhibition; at 3.7 µM; hits give high values
Compounds without any hit were thinned out: in the full panel of roughly 79,000, 15% have a hit.
Assign growth inhibition to each entry below.
Kindly provide the numeric value in % only, without the unit symbol.

Input line: Kindly indicate its recorded growth inhibition. Item: `CC1=C(SCCO)C(=O)c2ccccc2C1=O`
Output line: -10

Input line: Kindly indicate its recorded growth inhibition. Item: `COC(=O)c1ccc([N+](=O)[O-])c(O)c1`
Output line: -2

Input line: Kindly indicate its recorded growth inhibition. Item: CC(C)=CC(=O)O[C@@H]1CC(C)(C)CC2C3=CCC4[C@]56CC[C@](O)(OC5)C(C)(C)C6CC[C@@]4(C)C3(C)CC[C@]21C(=O)O (stereo partly drawn)
Output line: 42

Input line: Kindly indicate its recorded growth inhibition. Item: `N#CN1C2CCC1CC(=O)C2`
Output line: -15

Input line: Kindly indicate its recorded growth inhibition. Item: FC(F)(F)c1cc(NC(=S)N2c3ccccc3-n3cccc3C2c2cccnc2)cc(C(F)(F)F)c1 (stereo not drawn)
Output line: -6

Input line: Kindly indicate its recorded growth inhibition. Item: `O=C(Nc1ccc(Cl)cc1)OCC#CCCl`
Output line: 6

Input line: Kindly indicate its recorded growth inhibition. Item: CC1OCC2OC(C)OC(C3C4=C(CC(C)(C)CC4=O)OC4=C3C(=O)CC(C)(C)C4)C2O1 (stereo not drawn)
Output line: 18

Input line: Kindly indicate its recorded growth inhibition. Item: `CCOC(=O)c1cc(-c2ccc(Cl)cc2)c([N+](=O)[O-])n1C`
Output line: 37

Input line: Kindly indicate its recorded growth inhibition. Item: `O=C(CCCN1CCC(O)(c2ccc(Cl)cc2)CC1)c1ccc(F)cc1`
Output line: 37

Input line: Kindly indicate its recorded growth inhibition. Item: `O=C(O)c1cccc(-c2c3ccc(=O)cc-3oc3cc(O)ccc23)c1`
Output line: 6

Input line: Kindly indicate its recorded growth inhibition. Item: `CCN(CC)C(C)(C)C(=O)/C=C/c1ccccc1`
Output line: -1

Input line: Kindly indicate its recorded growth inhibition. Item: `CC1=C(C)Cc2c(O)ccc(O)c2C1`
Output line: 10

Input line: Kindly indicate its recorded growth inhibition. Item: `CNC(=O)OCc1c(COC(=O)NC)c(-c2ccc(Cl)c(Cl)c2)n2c1CCC2`
Output line: -46

Input line: Kindly indicate its recorded growth inhibition. Item: `Cc1ccc(S(=O)(=O)NCCSS(=O)(=O)c2ccc(C)cc2)cc1`
Output line: 6

Input line: Kindly indicate its recorded growth inhibition. Item: CCC[CH2][Ge]([CH2]CCC)([CH2]CCC)[O]C(=O)C(OC)c1ccccc1 (stereo not drawn)
Output line: 4

Input line: Kindly indicate its recorded growth inhibition. Item: `CN(Cc1cnc2nc(N)nc(N)c2n1)c1ccc(C(=O)N[C@@H](CCC(=O)O)C(=O)O)cc1`
Output line: 0

Input line: Kindly indicate its recorded growth inhibition. Item: `COCCOC(=O)CCn1cc(F)c(=O)[nH]c1=O`
Output line: 6

Input line: Kindly indicate its recorded growth inhibition. Item: `Cc1ccc2ccc(O)cc2c1`
Output line: -32

Input line: Kindly indicate its recorded growth inhibition. Item: `Brc1ccc(-c2cc3c(cc2C2SCCS2)OCO3)cc1`
Output line: -27

Input line: Kindly indicate its recorded growth inhibition. Item: `c1ccc2c(c1)NC(NC1Nc3ccccc3N1)N2`
Output line: 10

Input line: Kindly indicate its recorded growth inhibition. Item: N#CC(C(=O)Nc1ccccc1)C1=C(Cl)C(=O)c2ccccc2C1=O (stereo not drawn)
Output line: -8

Input line: Kindly indicate its recorded growth inhibition. Item: `CSC(=S)N/N=C(\C)c1cccc(C)n1`
Output line: -5

Input line: Kindly indicate its recorded growth inhibition. Item: `CNC(=O)OCc1c(COC(=O)NC)c(-c2ccc(-c3ccccc3)cc2)n(C)c1C`
Output line: -42
